target: T1, 006 PSMA Fab (biotinylated (site not stated)); assay: clonal phage ELISA on biotinylated PSMA Fab captured on neutravidin plates, anti-M13-HRP detection;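 further: crude clonal phage supernatants added to wells preincubated with PSMA antigen or with blocking buffer only (no wash between), briefly incubated, then washed before detecting bound phage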
T1 construct: Biotinylated PSMA Fab captured on neutravidin coated plates in the panning ELISA; also called Anti-PSMA Fab
Where no end group is shown, it is not given here.
property_name: phage binding ELISA signal
Numbers only.

binder	phage binding ELISA signal
SYKWCTPDWMCVAV (Clone of the Peptide-180 optimisation library, tested as clonal phage supernatant (peptide fused to pIII of the bacteriophage)) [Phage-2769]	0.651
GEIRCSPAWMCDGF (Clone of the Peptide-180 optimisation library, tested as clonal phage supernatant (peptide fused to pIII of the bacteriophage)) [Phage-2757]	0.682

Each binder below has a reported value. Please supply its phage binding ELISA signal.
1. AHNWCTPAWMCMWD (cysteine pairing not given here; also: fused to pIII, displayed on bacteriophage, Clone of the Peptide-180 optimisation library, tested as clonal phage supernatant (peptide fused to pIII of the bacteriophage)) [Phage-2756]
2. FEKWCTPTWMCWPY (Clone of the Peptide-180 optimisation library, tested as clonal phage supernatant (peptide fused to pIII of the bacteriophage)) [Phage-2763]
3. QIKWCIPMWMCEGE (Clone of the Peptide-180 optimisation library, tested as clonal phage supernatant (peptide fused to pIII of the bacteriophage)) [Phage-2770]

Result:
[0.682, 0.661, 0.651]
